// values below are reported Emax
Target: CFTR (F508del/MF-HBE cells) (Homo sapiens, UniProt P13569, DEL508-508)
Construct: human bronchial epithelial (HBE) cells derived from CF subjects heterozygous for F508del and a minimal function CFTR mutation (F508del/MF-HBE); endogenous in cells; host or cells: Primary human bronchial epithelial cells from CF subjects (F508del/MF genotype), differentiated at an air-liquid interface
Sequence (P13569 with tags, fused parts or gaps DEL508-508): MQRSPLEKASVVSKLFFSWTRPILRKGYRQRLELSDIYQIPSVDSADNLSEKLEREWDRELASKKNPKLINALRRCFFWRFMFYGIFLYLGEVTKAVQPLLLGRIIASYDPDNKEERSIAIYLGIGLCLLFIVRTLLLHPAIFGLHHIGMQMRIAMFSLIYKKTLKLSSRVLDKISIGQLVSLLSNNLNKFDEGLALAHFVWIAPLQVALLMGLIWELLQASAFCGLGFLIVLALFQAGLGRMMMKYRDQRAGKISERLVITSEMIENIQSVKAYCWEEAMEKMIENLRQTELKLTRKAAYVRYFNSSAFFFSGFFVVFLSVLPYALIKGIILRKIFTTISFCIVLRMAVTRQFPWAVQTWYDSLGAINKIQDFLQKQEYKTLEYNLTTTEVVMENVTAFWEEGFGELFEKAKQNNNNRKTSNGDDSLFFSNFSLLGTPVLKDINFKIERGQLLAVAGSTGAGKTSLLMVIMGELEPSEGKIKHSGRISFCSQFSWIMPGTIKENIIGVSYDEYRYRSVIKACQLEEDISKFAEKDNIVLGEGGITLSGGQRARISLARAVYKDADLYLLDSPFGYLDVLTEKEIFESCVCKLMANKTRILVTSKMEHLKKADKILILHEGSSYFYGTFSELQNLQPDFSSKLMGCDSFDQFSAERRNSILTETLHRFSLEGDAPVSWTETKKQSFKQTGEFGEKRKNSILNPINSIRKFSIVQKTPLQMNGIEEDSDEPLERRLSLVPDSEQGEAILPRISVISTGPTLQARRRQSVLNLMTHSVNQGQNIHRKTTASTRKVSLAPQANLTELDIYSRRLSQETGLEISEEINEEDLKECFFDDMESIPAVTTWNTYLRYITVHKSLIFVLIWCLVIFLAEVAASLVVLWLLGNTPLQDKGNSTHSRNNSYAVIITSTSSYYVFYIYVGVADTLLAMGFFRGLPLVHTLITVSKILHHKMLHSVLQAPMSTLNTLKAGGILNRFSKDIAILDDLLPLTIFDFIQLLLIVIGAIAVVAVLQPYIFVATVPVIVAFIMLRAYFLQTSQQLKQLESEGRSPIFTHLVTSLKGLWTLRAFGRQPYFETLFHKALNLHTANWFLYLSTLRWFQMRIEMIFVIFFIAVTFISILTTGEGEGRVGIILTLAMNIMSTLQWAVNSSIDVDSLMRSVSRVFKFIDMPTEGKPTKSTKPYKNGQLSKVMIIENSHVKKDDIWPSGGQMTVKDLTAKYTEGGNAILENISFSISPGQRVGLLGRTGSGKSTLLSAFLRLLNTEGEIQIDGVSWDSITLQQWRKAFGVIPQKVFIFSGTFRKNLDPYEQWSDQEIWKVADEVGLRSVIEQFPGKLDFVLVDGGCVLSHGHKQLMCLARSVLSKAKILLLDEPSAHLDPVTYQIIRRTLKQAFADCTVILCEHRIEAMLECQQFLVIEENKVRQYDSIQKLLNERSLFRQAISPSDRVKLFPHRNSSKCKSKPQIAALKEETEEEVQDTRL
Test: Ussing chamber assay of CFTR-mediated short-circuit currents, Assay A (0.1 μM to 25 μM, 6 concentrations)
Format: cell-based
Conditions: with 33 nM potentiator and 18 μM Tezacaftor, 18-24 hours, 20% human serum, read-out: A Max activity (%)

Below, 6 compounds whose answers are already recorded.
* Cc1cccc(C)c1-c1cc2nc(n1)NS(=O)(=O)c1cccc(c1)C(=O)N(Cc1cnc3cc(C(C)C)n(C)c3n1)[C@H](C[C@@H]1CCCO1)CO2 (stereo in doubt) [Compound I-16] | > 60%
* Cc1cccc(C)c1-c1cc2nc(n1)NS(=O)(=O)c1cccc(c1)C(=O)N(Cc1cnc3cc(C(C)C)n(C)c3n1)[C@H](CCC(C)(C)F)CO2 [Compound I-106] | > 60%
* Cc1cccc(C)c1-c1cc2nc(n1)NS(=O)(=O)c1cccc(c1)C(=O)N(Cc1cnc3oc(C(C)C)cc3n1)C(COC1CCC1)CO2 (single isomer, unassigned) [Compound I-49] | > 60%
* Cc1cccc(C)c1-c1cc2nc(n1)NS(=O)(=O)c1cccc(c1)C(=O)N(Cc1cnc3oc(C4CC4)cc3n1)[C@H](COC(C)C)CO2 [Compound I-23] | > 60%
* Cc1cccc(C)c1-c1cc2nc(n1)NS(=O)(=O)c1cccc(c1)C(=O)N(Cc1cnc3oc(C4CC4)cc3n1)[C@H](CC(C)(C)F)CO2 [Compound I-51] | > 60%
* Cc1cccc(C)c1-c1cc2nc(n1)NS(=O)(=O)c1cccc(c1)C(=O)N(Cc1cnc3oc(C(C)C)c(C)c3n1)[C@H](CC1CCCCC1)CO2 [Compound I-12] | > 60%

Noted for Cc1cccc(C)c1-c1cc2nc(n1)NS(=O)(=O)c1cccc(c1)C(=O)N(Cc1cnc3oc(C4CC4)cc3n1)[C@H](CC1CCCCC1)CO2 [Compound I-42] : its Emax reads > 60%

Noted for Cc1cccc(C)c1-c1cc2nc(n1)NS(=O)(=O)c1cccc(c1)C(=O)N(C(=O)c1cncc(N(C)C3CCC3)n1)[C@H](CC(C)(C)C)CO2 [II-32] : its Emax reads > 60%

Noted for Cc1cccc(C)c1-c1cc2nc(n1)NS(=O)(=O)c1cccc(c1)C(=O)N(Cc1cnc3oc(C(C)C)c(C)c3n1)[C@H](CC1(C)CC1)CO2 [Compound I-17] : its Emax reads > 60%

Noted for Cc1cccc(C)c1-c1cc2nc(n1)NS(=O)(=O)c1cccc(c1)C(=O)N(Cc1cnc3oc(C4CC4)cc3n1)[C@H](CCC(C)(C)F)CO2 [Compound I-107] : its Emax reads > 60%

Noted for Cc1cccc(C)c1-c1cc2nc(n1)NS(=O)(=O)c1cccc(c1)C(=O)N(Cc1cnc3oc(C(C)(C)C)cc3n1)[C@H](CC13CC(C1)C3)CO2 [Compound I-99] : its Emax reads > 60%

Noted for Cc1cccc(C)c1-c1cc2nc(n1)NS(=O)(=O)c1cccc(c1)C(=O)N(Cc1cnc3c(n1)CC(C(C)C)O3)[C@H](CC1(C)CC1)CO2 (single isomer, unassigned) [III-13] : its Emax reads > 60%

Noted for Cc1cccc(C)c1-c1cc2nc(n1)NS(=O)(=O)c1cccc(c1)C(=O)N(Cc1cn3cccc(N)c3n1)[C@H](CC(C)(C)C)CO2 [III-12] : its Emax reads > 60%

Noted for Cc1cccc(C)c1-c1cc2nc(n1)NS(=O)(=O)c1cccc(c1)C(=O)N(Cc1cnc3cc(C(C)C)n(C)c3n1)[C@H](CC1C3(CC3)C13CC3)CO2 [Compound I-100] : its Emax reads > 60%

Noted for Cc1cccc(C)c1-c1cc2nc(n1)NS(=O)(=O)c1cccc(c1)C(=O)N(Cc1cnc3oc(C(C)C)c(C)c3n1)[C@H](CCC(C)(C)C)CO2 [Compound I-11] : its Emax reads > 60%

Noted for Cc1cccc(C)c1-c1cc2nc(n1)NS(=O)(=O)c1cccc(c1)C(=O)N(Cc1nc3c(C(C)C)cccc3o1)[C@H](CC(C)(C)C)CO2 [III-7] : its Emax reads > 60%

Noted for Cc1cccc(C)c1-c1cc2nc(n1)NS(=O)(=O)c1cccc(c1)C(=O)N(Cc1cnc3oc(C4(C)CC4)cc3n1)[C@H](CC13CC(C1)C3)CO2 [Compound I-97] : its Emax reads > 60%

Noted for Cc1cccc(C)c1-c1cc2nc(n1)NS(=O)(=O)c1cccc(c1)C(=O)N(Cc1nc3c(cc1F)nc(C(C)C)n3C)[C@H](CC(C)(C)C)CO2 [Compound I-69] : its Emax reads > 60%

Noted for Cc1cccc(C)c1-c1cc2nc(n1)NS(=O)(=O)c1cccc(c1)C(=O)N(Cc1cnc3oc(C(C)(C)C)cc3n1)[C@H](CC1(C)CC1)CO2 [Compound I-98] : its Emax reads > 60%

Noted for Cc1cccc(C)c1-c1cc2nc(n1)NS(=O)(=O)c1cccc(c1)C(=O)N(Cc1cnc3oc(C4CC4)cc3n1)[C@H](CC13CC(C1)C3)CO2 [Compound I-52] : its Emax reads > 60%

Noted for Cc1cccc(C)c1-c1cc2nc(n1)NS(=O)(=O)c1cccc(c1)C(=O)N(Cc1cnc3oc(C(C)C)c(C)c3n1)[C@H](COC(C)C)CO2 [Compound I-10] : its Emax reads > 60%

Noted for Cc1cccc(C)c1-c1cc2nc(n1)NS(=O)(=O)c1cccc(c1)C(=O)N(Cc1cnc3cc(C(C)C)n(C)c3n1)[C@H](C[C@H]1CCCCO1)CO2 [Compound I-3] : its Emax reads > 60%

----------
Target: CFTR (F508del/MF-HBE cells) (Homo sapiens, UniProt P13569, DEL508-508)
Construct: human bronchial epithelial (HBE) cells derived from CF subjects heterozygous for F508del and a minimal function CFTR mutation (F508del/MF-HBE); endogenous in cells; host or cells: Primary human bronchial epithelial cells from CF subjects (F508del/MF genotype), differentiated at an air-liquid interface
Assay: Ussing chamber assay of CFTR-mediated short-circuit currents, Assay C (0.026 μM to 25 μM, 6 concentrations)
Type: cell-based
Conditions: with 33 nM potentiator and 18 μM Tezacaftor, 20% human serum, read-out: C Max activity (%)
Endpoint name: Emax

Below, 8 compounds whose answers are already recorded.
• Cc1cccc(C)c1-c1cc2nc(n1)NS(=O)(=O)c1cccc(c1)C(=O)N(Cc1cnc3oc(C(C)(C)C)cc3n1)[C@H](CC1(C)CCC1)CO2 = > 60%
• Cc1cccc(C)c1-c1cc2nc(n1)NS(=O)(=O)c1cccc(c1)C(=O)N(Cc1cnc3cc(C(C)(C)C(F)(F)F)n(C)c3n1)[C@H](COC(C)C)CO2 = > 60%
• Cc1cccc(CC(C)C)c1-c1nc2nc(c1C)OC[C@@H](CC(C)(C)C)N(Cc1cnc3cc(C4(C)CC4)n(C)c3n1)C(=O)c1cccc(c1)S(=O)(=O)N2 (atropisomer, axis not shown) = > 60%
• Cc1cccc(COC(C)C)c1-c1nc2nc(c1C)OC[C@@H](CC(C)(C)C)N(Cc1cnc3oc(C(C)(C)C)cc3n1)C(=O)c1cccc(c1)S(=O)(=O)N2 (single isomer, unassigned) = > 60%
• Cc1cccc(C)c1-c1cc2nc(n1)NS(=O)(=O)c1cccc(c1)C(=O)N(Cc1cnc3sc(C4CC4)cc3n1)[C@H](CC13CC(C1)C3)CO2 = > 60%
• COCCc1c(C(C)(C)C)n(C)c2nc(CN3C(=O)c4cccc(c4)S(=O)(=O)Nc4nc(cc(-c5c(C)cccc5C)n4)OC[C@H]3CC34CC(C3)C4)cnc12 = > 60%
• Cc1cccc(C)c1-c1cc2nc(n1)NS(=O)(=O)c1cccc(c1)C(=O)N(Cc1cnc3oc(C4CC5(CC5)C4)cc3n1)[C@H](CC1(C)CC1)CO2 = > 60%
• Cc1cccc(C)c1-c1nc2nc(c1C)OC[C@@H](C[C@H]1CCCO1)N(Cc1cnc3cc(C4(C(F)(F)F)CC4)n(C)c3n1)C(=O)c1cccc(c1)S(=O)(=O)N2 = > 60%

# CCc1cccc(CC)c1-c1nc2nc(c1C)OC[C@@H](CC(C)(C)C)N(Cc1cnc3cc(C(C)(C)C)n(C)c3n1)C(=O)c1cccc(c1)S(=O)(=O)N2 with CFTR (F508del/MF-HBE cells) (Homo sapiens, UniProt P13569, DEL508-508): Emax is > 60%

# Cc1cccc(C)c1-c1cc2nc(n1)NS(=O)(=O)c1cccc(c1)C(=O)N(Cc1cnc3oc([C@H](C)CO)cc3n1)[C@H](CC1(C)CC1)CO2 with CFTR (F508del/MF-HBE cells) (Homo sapiens, UniProt P13569, DEL508-508): Emax is > 60%

# COCCc1c(C(C)(C)C)n(C)c2nc(CN3C(=O)c4cccc(c4)S(=O)(=O)Nc4nc(c(OC)c(-c5c(C)cccc5CC(C)C)n4)OC[C@H]3CC(C)(C)C)cnc12 (atropisomer, axis not shown) with CFTR (F508del/MF-HBE cells) (Homo sapiens, UniProt P13569, DEL508-508): Emax is > 60%

Cited source: patent US20250340574A1
